# system: HPK1 (Homo sapiens (Human), UniProt Q92918, S171E/T165E)
# Sequence (Q92918 whole entry T165E/S171E): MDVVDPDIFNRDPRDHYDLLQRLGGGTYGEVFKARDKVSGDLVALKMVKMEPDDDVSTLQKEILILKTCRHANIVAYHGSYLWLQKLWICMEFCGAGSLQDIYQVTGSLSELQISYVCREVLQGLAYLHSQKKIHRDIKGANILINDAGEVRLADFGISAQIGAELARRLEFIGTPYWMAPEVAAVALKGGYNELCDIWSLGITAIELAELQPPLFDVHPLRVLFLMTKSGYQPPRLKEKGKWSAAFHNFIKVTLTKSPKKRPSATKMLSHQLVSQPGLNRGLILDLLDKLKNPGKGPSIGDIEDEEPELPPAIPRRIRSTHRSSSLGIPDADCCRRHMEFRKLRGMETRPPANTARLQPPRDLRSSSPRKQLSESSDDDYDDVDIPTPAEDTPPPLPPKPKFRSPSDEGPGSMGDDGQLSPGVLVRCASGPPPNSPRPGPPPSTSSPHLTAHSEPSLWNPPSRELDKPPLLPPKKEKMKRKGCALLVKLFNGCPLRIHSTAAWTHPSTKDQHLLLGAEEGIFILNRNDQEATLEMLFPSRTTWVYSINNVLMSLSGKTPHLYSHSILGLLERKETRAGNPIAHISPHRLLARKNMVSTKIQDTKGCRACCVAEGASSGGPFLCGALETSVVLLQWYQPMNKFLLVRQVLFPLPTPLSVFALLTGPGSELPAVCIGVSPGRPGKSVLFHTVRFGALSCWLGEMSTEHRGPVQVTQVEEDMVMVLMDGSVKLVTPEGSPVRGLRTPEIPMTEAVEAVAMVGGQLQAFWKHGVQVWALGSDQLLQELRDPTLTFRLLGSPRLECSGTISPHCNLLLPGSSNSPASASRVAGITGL
# experiment summary: HPK1-FL HTRF Enzymatic Assay ("HTRF")
# condition summary: HPK full length, ATP 1 mM
I'd appreciate it if you marked entries YES when Ki is lower than 5 nM and NO when it is not.

molecule	system	label value
Cc1c(-c2cc3cc(NC(=O)OCCS(C)(=O)=O)ncc3cc2F)cnc2c1NCCO2	HPK1 (Homo sapiens (Human), UniProt Q92918, S171E/T165E)	NO
Cc1c(-c2cc3cc(NC(=O)O[C@H]4CCC[C@@H]4C#N)ncc3c(Cl)c2F)cnc2c1NCCO2 (single isomer, unassigned) [Compound 127b]	HPK1 (Homo sapiens (Human), UniProt Q92918, S171E/T165E)	YES
Cc1c(-c2cc3cc(NC(=O)OCCN)ncc3cc2F)cnc2c1NCCO2	HPK1 (Homo sapiens (Human), UniProt Q92918, S171E/T165E)	NO
Cc1c(-c2cc3cc(NC(=O)OCC(C)(C)C)ncc3cc2F)cnc2c1NCCO2	HPK1 (Homo sapiens (Human), UniProt Q92918, S171E/T165E)	YES
Cc1c(N)cncc1-c1cc2cc(NC(=O)OCC3CC3)ncc2cc1F	HPK1 (Homo sapiens (Human), UniProt Q92918, S171E/T165E)	NO
Cc1c(-c2cc3cc(NC(=O)OC4CC5(CCN(C)CC5)C4)ncc3cc2F)cnc2c1NCCC2	HPK1 (Homo sapiens (Human), UniProt Q92918, S171E/T165E)	YES
Cc1c(-c2cc3cc(NC(=O)OCCC4C5CNCC45)ncc3cc2F)cnc2c1NCCO2 (centres unmarked)	HPK1 (Homo sapiens (Human), UniProt Q92918, S171E/T165E)	YES
CC[C@H]1[C@H](C(=O)Nc2cc3cc(-c4c[n+]([O-])ccc4C)c(F)cc3cn2)[C@H]1c1cnn(C)c1 [Compound 302b]	HPK1 (Homo sapiens (Human), UniProt Q92918, S171E/T165E)	NO
Cc1c(-c2cc3cc(NC(=O)O[C@@H]4CCCC[C@H]4C#N)ncc3c(Cl)c2F)cnc2c1NCCO2 (single isomer, unassigned) [Compound 126b]	HPK1 (Homo sapiens (Human), UniProt Q92918, S171E/T165E)	YES
Cc1c(-c2cc3cc(NC(=O)OCC45CC4CCN5)ncc3cc2F)cnc2c1NCCO2 (racemic)	HPK1 (Homo sapiens (Human), UniProt Q92918, S171E/T165E)	NO
CC[C@@H]1[C@H](C(=O)Nc2cc3cc(-c4cnc5c(c4C)NCCO5)c(F)cc3cn2)[C@H]1c1cnn(C)c1 (single isomer, unassigned) [Compound 301c]	HPK1 (Homo sapiens (Human), UniProt Q92918, S171E/T165E)	YES
Cc1c(-c2cc3cc(NC(=O)OC4CC5(CCNC5)C4)ncc3cc2F)cnc2c1NCCO2 (centres unmarked)	HPK1 (Homo sapiens (Human), UniProt Q92918, S171E/T165E)	YES
Cc1c(-c2cc3cc(NC(=O)O[C@H]4CCCC[C@@H]4C#N)ncc3c(Cl)c2F)cnc2c1NCCO2 (single isomer, unassigned) [Compound 126a]	HPK1 (Homo sapiens (Human), UniProt Q92918, S171E/T165E)	NO

These entries and their values trace back to patent US12473301B2.
